system-tested: T1, human MSLN-R1-his protein (human, UniProt Q13421 296-390)
T1 construct: Made in HEK293E cells, purified on nickel column; also called hMSLN-R1-his; human MSLN-R1 protein; not shown: His tag
T1 chain: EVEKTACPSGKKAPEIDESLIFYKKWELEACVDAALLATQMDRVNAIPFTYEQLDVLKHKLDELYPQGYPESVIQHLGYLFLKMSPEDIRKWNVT
assay-overview: ELISA, coated antigen, antibody 0.02 nM
observed-property: OD450
Lab note: record the figure alone, no unit after it.

I would be grateful if you could share the reported OD450 for S009-F7.18.10 chimeric antibody (antibody, human IgG1, kappa, V domains shown, Human-murine chimeric antibody, human IgG1/kappa constant regions) VH: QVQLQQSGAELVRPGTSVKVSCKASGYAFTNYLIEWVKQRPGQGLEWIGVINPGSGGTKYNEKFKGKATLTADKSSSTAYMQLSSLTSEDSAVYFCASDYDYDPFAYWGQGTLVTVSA VL: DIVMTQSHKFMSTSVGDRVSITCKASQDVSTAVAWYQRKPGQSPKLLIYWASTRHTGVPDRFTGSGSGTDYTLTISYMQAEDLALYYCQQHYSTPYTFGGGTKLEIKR .
2.05
